Before we begin, note that these pIC50 values for Epidermal growth factor receptor (Homo sapiens) originate from several publications.
pIC50: −log10 of the molar value.

Please give the measured pIC50 for this compound: COc1cc(N2CCC(N3CCN(C)CC3)CC2)c(C)cc1Nc1ncc(Br)c(Nc2ccc3ncccc3c2P(C)(C)=O)n1 7.94

Same again, this time with COCCN1CCC(Nc2ccc3c(c2)/C(=C(\c2cccc(Cl)c2)c2ncc[nH]2)C(=O)N3)CC1 5.30 to 6.30

# repeat for CC#CC(=O)N[C@H]1CC[C@H](n2nc(-c3ccc(C(=O)Nc4cc(C(F)(F)F)ccn4)cc3)c3c(N)ncnc32)CC1 6.00 to 7.00

Okay, and Cc1ccc(Oc2ccc(Nc3ncnc4sc5c(c34)CN(C(=O)/C=C/CN(C)C)C5)cc2Cl)cn1 ? < 5.00

###

Target or system Epidermal growth factor receptor (Homo sapiens); metric IC50; compiled from varied reports.

What value of IC50 has been recorded for this entry: CC(C)c1nc(-c2ccc(F)c(NS(=O)(=O)c3ccccc3C#N)c2)c(-c2ccnc(Nc3ccc(N4CCOCC4)nc3)n2)s1 0.1 to 1 µM

Do the same for C=CC(=O)N(C)c1ccc(-n2c(=O)n(-c3ccc(Cl)cc3)c3c(N)ncnc32)cc1 please 0.1 to 1 µM

Record: COc1ccc2ccccc2c1C(=O)NCc1ccc(-c2nn(C3CCCC3)c3ncnc(N)c23)cc1 1 to 10 µM

Now consider CCN1CCC(Nc2ccc3c(c2)/C(=C(/c2ncc[nH]2)c2ccccc2F)C(=O)N3)CC1 . 0.05 to 0.5 µM

Input C=CC(=O)Nc1cccc(-c2n[nH]c3cnc(Nc4ccc(OCCOC)cc4)nc23)c1 1 to 10 µM

Follow-up item: Oc1ccc(/C=C/c2cc(-c3ccccc3)n[nH]2)cc1 > 5 µM

Would you kindly repeat that for COc1cc2ncnc(Nc3ccc(F)c(Cl)c3)c2c2c1OCCO2 ? < 0.05 µM

And what about the compound CCOc1cc2ncnc(Nc3cccc(OC)c3)c2c2c1OCCO2 ? < 0.05 µM

###

Epidermal growth factor receptor (Homo sapiens, UniProt P00533) IC50, compiled from various sources.
Simple rule here: IC50 less than 300 nM is label 1, otherwise label 0.

Please indicate whether the reported IC50 of CC(C)c1ccc(N2CC(CS(C)(=O)=O)C2)c2cnc(Nc3ccnc(-c4ccc(O)c(C=O)c4)n3)cc12 is strictly below 300 nM. label 0

Try COc1cc(/C=C2\CCC/C(=C\c3ccccc3)C2=O)cc(OC)c1 next. label 0

Next entry: CCOC(=O)C1CCN(Cc2ccc(Nc3nc4ncnc(Nc5ccc(F)c(Cl)c5)c4s3)cc2)CC1 label 1

Also, COc1cc(N2C[C@@H](C)N(C)[C@@H](C)C2)c(C)cc1Nc1ncc(Br)c(Nc2cccc3c2N(S(C)(=O)=O)CC3)n1 please. label 1

Record: CCc1cc(Nc2ncc(Br)c(Nc3ccc(-c4ncc(F)cn4)cc3P(C)(C)=O)n2)c(OC)cc1N1CCC(N2CCN(C)CC2)CC1 label 1

Try this compound too: CC(C)(O)Cn1/c(=N/C(=O)c2ccnc(CCc3cccc(O)c3C=O)c2)[nH]c2ccccc21 label 1

Please do the same for CP(C)(=O)c1ccccc1Nc1nc(Nc2ccc(N3CCC4(CC3)CC(NCCO)C4)c(Cl)c2)ncc1Cl as well. label 1

Now consider COc1cc(N2CCC(N3CCN(C)CC3)CC2)ccc1Nc1ncc(Cl)c(Nc2cc(C)cc3c2N(S(C)(=O)=O)CC3)n1 . label 0

Further, for Cn1ncc2c1OCCCOc1ccccc1/C=C/c1n[nH]c3ccc-2cc13 ? label 0

###

// read-out IC50, gathered for Epidermal growth factor receptor (Homo sapiens) from published studies

IC50 lookup needed for C=C1c2c(-c3cnc4ccccc4c3)c3c(N)ncnc3n2C[C@H]1NC(=O)C#CC , thanks. 52 nM

Please answer likewise for C=CC(=O)Nc1cccc(-n2c(=O)[nH]c3cnc(Nc4ccc(OCCOC)cc4)nc32)c1 1000 to 10000 nM

Entry CCc1cc(Nc2ncc(Br)c(Nc3ccc(-n4cc(F)cn4)cc3P(C)(C)=O)n2)c(OC)cc1N1CCC(N2CCN(C)CC2)CC1 please 11.5 nM

Next: C=CC(=O)Nc1cccc(N2C(=O)N(C)Cc3cnc(Nc4ccc(N5CCN(C)CC5)cc4OCC)nc32)c1 ≤ 10 nM

###

Recorded IC50 for molecules tested on Epidermal growth factor receptor (Homo sapiens), drawn from a number of studies.

Sample C=CC(=O)N1CCC[C@@H](Nc2n[nH]c3nccc(Oc4cccc(-c5ncc(C)s5)c4)c23)C1 — what was its IC50? 100 to 1000 nM

For N#Cc1ccnc(NC(=O)c2ccc(Oc3ccnc4[nH]nc(N[C@@H]5CCCN(C(=O)C6CC6)C5)c34)cc2)c1 then? 1000 to 10000 nM

Now consider CC(C)c1nc(-c2cccc(NS(=O)(=O)c3cccc(OC(F)F)c3)c2)c(-c2ccnc(Nc3ccc(N4CCOCC4)nc3)n2)s1 . > 1000 nM

Next record, please: CN(C)C/C=C/C(=O)N1CCC[C@@H](n2c(=O)[nH]c3cnc(Nc4ccc(F)cc4)nc32)C1 1000 to 10000 nM

###

UniProtKB P00533 IC50, compiled from various sources.

Recorded IC50 of COc1cc(Nc2ncnc3ccc4c(c23)OCCN4C(=O)/C=C/CN(C)C)ccc1OCc1cccc(F)c1 , please. ≤ 50 nM

Thanks! And Oc1cc(F)cc(CCNCc2ccc(-c3ccc4ncnc(Nc5ccc(OCc6cccc(F)c6)c(Cl)c5)c4c3)o2)c1 ? < 10000 nM

Likewise for C=C1c2c(-c3cnc4ccccc4c3)c3c(N)ncnc3n2C[C@H]1NC(=O)/C=C/CN(C)C ? 6 nM

# repeat for Cc1ccnc(NC(=O)c2ccc(-c3nn([C@H]4CC[C@H](NC(=O)/C=C/CN(C)C5CC5)CC4)c4ncnc(N)c34)cc2)c1 100 to 1000 nM

Can you check COc1ccc(S(C)(=O)=O)cc1Nc1nccc(-c2sc(C(C)C)nc2-c2cccc(NS(=O)(=O)c3c(F)cccc3F)n2)n1 next? 100 to 1000 nM

Field entry: C=CC(=O)Nc1cc(-c2c(-c3ccc(N4CCOCC4)nc3)[nH]c3ncc(C(=O)OC(C)C)cc23)ccc1C ≤ 100 nM

Entry CCc1nc(-c2ccc(F)c(NS(=O)(=O)c3ccccc3)c2)c(-c2ccnc(Nc3ccc(N4CCN(C(C)=O)CC4)nc3)n2)s1 please > 1000 nM

Next compound: C=CC(=O)N1CCOc2ccc(-c3c(-c4ccc(N5CCN(CC)CC5)cc4)[nH]c4nccc(Cl)c34)cc21 ≤ 100 nM

For CCNc1nc(-c2cc(OC)cc(OC)c2)c(-c2ccnc(Nc3ccc(N4CCOCC4)c(F)c3)n2)s1 then? > 1000 nM

Now give it for Cn1ncc2c1OCCN1CC[C@@H](Oc3ccc(F)cc3/C=C/c3n[nH]c4ccc-2cc34)C1=O too. 721 nM

Check C=CC(=O)N1CCc2ccc(-c3c(-c4ccc(C(=O)N5CCN(C)CC5)cc4)[nH]c4nccc(Cl)c34)cc21 too. ≤ 100 nM

Quick one: O=C(Nc1ccccc1)Nc1ccc(-c2cc(-c3ccccc3)n[nH]2)cc1 > 5000 nM

Similarly, CN(C)C1CCN(c2ccc(Nc3ncc(Br)c(Nc4cccc5c4N(S(C)(=O)=O)CC5)n3)c3c2CCO3)CC1 ? 4.4 nM

Then this compound: CC(=O)c1cccc(NC(=O)Nc2ccc(-c3cc(-c4nc5cc(N6CCN(C)CC6)ccc5[nH]4)n[nH]3)cc2)c1 > 5000 nM

###

Compiled from multiple publications: IC50 readings for Epidermal growth factor receptor (Homo sapiens, UniProt P00533).

Which value of IC50 has been reported for CN1CCN(c2ccc3[nH]c(-c4cc(-c5ccc(NC(=O)Nc6cccc(F)c6)cc5)[nH]n4)nc3c2)CC1 in the records? > 5000 nM

And for C[C@@H](Nc1ncnc2[nH]c(-c3ccc(NCc4ccc(C(=O)NO)cc4)cc3)cc12)c1ccccc1 ? < 100 nM

Please do the same for C=CC(=O)Nc1cccc(Nc2nc(Nc3ccc(OCCOCCNC(=O)CCCC(=O)NCCCOCCOCCOCCCNC(=O)CCCC[C@@H]4SC[C@@H]5NC(=O)N[C@@H]54)cc3)ncc2F)c1 as well. < 10 nM

Lookup CCN1Cc2nn(C)c(C)c2/C=C/c2n[nH]c3ccc(cc23)-c2cnn(C)c2O[C@@H](C)C1 44.1 nM

Okay, and Nc1ncnc2c1c(-c1ccc(CNC(=O)c3cc4ccccc4[nH]3)cc1)nn2C1CCCC1 ? 1000 to 10000 nM

Would you mind doing C=CC(=O)Nc1cccc(Oc2nc(Nc3ccc(N4CCN(C)CC4)c(N)c3)nc3[nH]ccc23)c1 as well? 64 nM

What do you have for C=CC(=O)Nc1cccc(Nc2cc(N(C)c3ccccc3)ncn2)c1 ? ≤ 10 nM

###

// molecules with IC50 on Epidermal growth factor receptor (Homo sapiens), multi-source literature

Request the reported IC50 associated with CCOc1nn(CCO)c2c1/C=C/c1n[nH]c3ccc(cc13)-c1cnn(C)c1OC[C@H](C)N(C1CC1)C2 0.0368 µM

Proceed to CNC/C=C/C(=O)Nc1cccc(-n2c(=O)n(-c3ccc(Oc4ccccc4)cc3)c3c(N)ncnc32)c1 < 0.1 µM

Queued: C=CC(=O)N1CCc2ccc(-c3c(-c4cccc(CN5CCN(C)CC5)c4)[nH]c4nccc(Cl)c34)cc21 ≤ 0.1 µM

Continue with C=CC(=O)N1CC[C@@H](Nc2n[nH]c3nccc(Oc4cccc(C(=O)Nc5ccc(C(C)C)c(C)c5)c4)c23)C1 0.1 to 1 µM

Same lookup for C=CC(=O)Nc1cc(-c2c(-c3ccc(C4CCN(C)CC4)cc3)[nH]c3ncc(C(=O)OC(C)C)cc23)cc(F)c1C , please. ≤ 0.1 µM

Moving on to CN(C)C/C=C/C(=O)N(C)c1cccc(-n2c(=O)n(-c3ccc(Cl)cc3)c3c(N)ncnc32)c1 > 10 µM

What would you report for C=CC(=O)Nc1cc(-c2c(-c3ccc(N4CCN(C)CC4)cc3)[nH]c3ncc(C(=O)OC4CC4)cc23)ccc1C ? ≤ 0.1 µM

Also, CC(C)c1nc(-c2cc(F)cc(NS(=O)(=O)c3c(F)cccc3F)c2)c(-c2ccnc(Nc3ccc(N4CCOCC4)c(F)c3)n2)s1 please. > 1 µM

Now give it for C=CC(=O)N[C@@H]1Cn2c(c(-c3cnc4ccccc4c3)c3c(N)ncnc32)C1=C too. 0.0007 µM

Same thing, different molecule: C=CC(=O)Nc1cccc(-c2cccc3cnc(Nc4ccc(N5CCN(C)CC5)c(F)c4F)nc23)c1 < 0.1 µM

# iterate: CN(C)c1ccnc(NC(=O)c2ccc(Oc3ccnc4[nH]nc(N[C@@H]5CCN(C(=O)/C=C/CN(C)C6CC6)C5)c34)cc2)c1 > 10 µM

Record: COc1cc(N2CCN(CCS(C)(=O)=O)CC2)c(C)cc1Nc1nccc(-c2sc(CC(C)C)nc2-c2cccc(NS(=O)(=O)c3c(F)cccc3F)c2)n1 < 0.1 µM

Same read-out for Cc1ccc(Oc2ccc(Nc3ncnc4sc5c(c34)CCN(C(=O)/C=C/CNC3CC3)C5)cc2C)cn1 ? 1 to 10 µM

Again, but for CCN1CCC(Nc2ccc3c(c2)/C(=C(\c2cccc(F)c2)c2nc(-c4ccccc4)c[nH]2)C(=O)N3)CC1 0.05 to 0.5 µM

Similarly, Clc1cc(Cl)cc(Nc2ncnc3nc(Nc4ccccc4)sc23)c1 ? 0.733 µM

Same lookup for CCNC(=O)N1CCCC(c2n[nH]c3nccc(Oc4ccc(C(=O)Nc5cc(C(F)(F)F)ccn5)cc4)c23)C1 (stereo not shown) , please. 1 to 10 µM

Would you mind doing C=CC(=O)N1CCC[C@@H](n2nc(-c3ccc(C(=O)Nc4cc(C(F)(F)F)ccn4)cc3)c3c(N)ncc(Cl)c32)C1 as well? 0.00883 µM

Can you check COc1ccccc1C(=O)NCc1ccc(-c2nn(CC(C)O)c3ncnc(N)c23)cc1 (stereo not shown) next? 1 to 10 µM

Try this molecule too: CN(C)C/C=C/C(=O)N1CCCC[C@@H](n2c(NC(=O)c3ccnc(Oc4cccc(O)c4C=O)c3)nc3cccc(Cl)c32)C1 0.013 µM

Try the molecule CCc1cc(Nc2ncc(Br)c(Nc3ccc(-c4cnc(OC)nc4)cc3P(C)(C)=O)n2)c(OC)cc1N1CCC(N2CCN(C)CC2)CC1 0.0297 µM

Same again, this time with C=CC(=O)Nc1cccc(Oc2nc(Nc3ccc(N4CCN(C)CC4)c(OC)c3)nc3[nH]ccc23)c1 0.217 µM

Then this molecule: COCCN1CCC(Nc2ccc3c(c2)/C(=C(\c2ccccc2)c2nc4cc(Cl)ccc4[nH]2)C(=O)N3)CC1 > 5 µM

Please give the result for Fc1ccc(Nc2ncnc3nc(Nc4ccc(CN5CCOCC5)cc4)sc23)cc1Cl too. 0.0154 µM

Same thing, different molecule: COc1cc(N2CCC(N3CCN(C)CC3)CC2)ccc1Nc1ncc(Cl)c(Nc2ccc(F)c3c2N(S(C)(=O)=O)CC3)n1 0.00055 µM

Param item: CN1CCN(Cc2ccc3[nH]/c(=N\C(=O)c4cc(C=O)cc(Oc5cccc(O)c5C=O)c4)n(CC(C)(C)O)c3c2)CC1 0.0103 µM

Entry to check: CN(C)C/C=C/C(=O)N1CC[C@@H](n2c(F)c(-c3ccc(Oc4ccccc4)cc3)c3c(N)ncnc32)C1 1 to 10 µM

Consider next the molecule C=CC(=O)N[C@@H]1CN(c2nc(Nc3cn(C)nc3OC)c3ncc(C)n3n2)C[C@H]1F in the same way. ≤ 0.01 µM

Similarly, C=CC(=O)Nc1cccc(Nc2nc(Nc3ccc(N4CCN(C)CC4)c(F)c3)nc3ccsc23)c1 ? > 1 µM
